procedure_summary: Solubility in water (visual, confirmed by HPLC assay of a saturated solution)
Assay type: physicochemical
applied_conditions: thermodynamic from solid
endpoint_label: solubility

compound="CCS(=O)(=O)O.CN(CCOc1ccc(CC2SC(=O)NC2=O)cc1)c1ccccn1 (stereo not shown) [Ethanesulfonate]" endpoint_label=solubility observed_result="> 100 mg/mL"
